From: patent US9403747B2

tested on: H838; assay: CCK-8 cell viability assay, H838; format: cell-based; conditions: Homo sapiens, NCI-H838, 48 h, 48 h treatment; means ± S.E.M.
REPORTED_PROPERTY: pIC50
# reply with the number alone; pIC50 is -log10 of concentration in mol/L

Prompt: Kindly state the measured pIC50 obtained for COC1=C(OC)C(=O)C(C/C=C(\C)CC/C=C(\C)CCC=C(C)C)=C(C)C1=O [Compound 25] with H838.
Completion: 4.65
